tgt: TCR YLQ7
Format: binding, human
study_conditions: read-out: KD of TCR YLQ7 for peptide–HLA-A2
pKd: −log10 of the molar value.
value_kind: pKd

// query What does the data say about its pKd? Entry: KLQPLTFLL [MERS-KLQ]
// result < 4.30

// query What does the data say about its pKd? Entry: PLTSRQYLL [OC43-PLT]
// result < 4.30

// query What does the data say about its pKd? Entry: YLKPTTFML [SARS-YLK]
// result < 4.30

// query What does the data say about its pKd? Entry: PLSKRQYLL [HKU1-PLS]
// result < 4.30
